system: DU-145; test: NCI tumour cell line growth inhibition, 48 h
Calls of active or inactive are those of the source. No stated cut-off is given here; in the data, active = GI50 up to about 1.1 µM and inactive = higher.
Hello, when you answer, please use one of the following outcomes: y = active, n = inactive

Field: example entries. Status: answers known.
Compound	Label value
COC(=O)N[C@@H]1C[C@H]2CC[C@]1(O[Si](C(C)C)(C(C)C)C(C)C)C(=O)C2	n
CC(C)C1=C(O)C(=O)C2=C(C1=O)C(OC=O)C(O)C1C(C)(C)CCCC21C (stereo not given)	n

input: What did the test return for O=C1C(=Cc2ccccc2[N+](=O)[O-])N=C(c2ccccc2)N1n1c(-c2ccccc2)nc2ccccc2c1=O ?
output: n

input: Another: CC[C@@]1(O)C(=O)OCc2c1cc1n(c2=O)Cc2c-1nc1ccccc1c2/C=N\NC(=O)C(C)N (stereo not given in full)
output: y

input: Query Oc1ccccc1C1=NOC(c2ccc(C(F)(F)F)cc2)C1 (stereo not given) next
output: n

input: Repeat for the following compound: CC(=O)OCC1OC(Oc2cc(C)c(O)cc2C/C=C(\C)CC/C=C(\C)C[C@@H](C=C(C)C)OC(C)=O)C(O)C(OC(C)=O)C1OC(C)=O (stereo not given in full)
output: n

input: What would you report for COc1ccc(/C=N\N2CC(=O)N3C4C=CC(CC4)N3C2=O)cc1 (stereo not given) ?
output: n

input: Would you kindly repeat that for OC(C1CCCC1=N/N=C1/CCCC1C(O)(C(F)(F)Cl)C(F)(F)Cl)(C(F)(F)Cl)C(F)(F)Cl (stereo not given) ?
output: n

input: Now the same for CCOc1ccccc1/N=C\c1c2ccccc2cc2ccccc12
output: n

input: // query: O=C(O)C(NCc1ccccc1)C(NCc1ccccc1)C(=O)O (stereo not given)
output: n

###

system: OVCAR-8; experiment: NCI tumour cell line growth inhibition, 48 h
Active and inactive are the calls of the source. Rule as the data show it: active = GI50 up to about 1.1 µM and inactive = higher.
The categories you may choose from are T (active), F (inactive)

Please review the entries below; each comes with its answer.
Molecule	Target	Label value
C/C(CCn1[nH]c(=O)ccc1=O)=N\NC(=O)C(N)=O	OVCAR-8	F
COc1ccc2c(c1)C(=O)C1CC(=O)CCC21 (stereo not drawn)	OVCAR-8	F
CC1(C)CCCCCCC2OC2CCCCCC(C)(C)C1=O (stereo not drawn)	OVCAR-8	F

input: # fetch the recorded call for CC1(C)OC2C(CO)OC(n3ccc(=O)[nH]c3=O)C2O1 (stereo not drawn) here
output: F

input: Then C=C1C(=O)O[C@@H]2/C=C(\C)CC/C=C(/COC(C)=O)C[C@@H](OC(C)=O)[C@@H]12 ?
output: F

input: Subsequent entry: COC(=O)CCn1cnc2c(SC)ncnc21
output: F

input: # repeat for O=C1NC(NCc2ccc(F)cc2)=N/C1=C\c1ccccc1Cl
output: F

input: C#CCC(O)c1ccc(OC)c(OCc2ccccc2)c1 (stereo not drawn) , same question.
output: F

input: Consider next the molecule CCN1C(=O)C(C)S/C1=N\NC(=O)CSc1nc2ccccc2c(=O)n1CC (stereo not drawn) in the same way.
output: F

input: Moving on to COC(=O)C12C3C4C1C1C2C3C41C(=O)O (stereo not drawn)
output: F

###

test system: CCRF-CEM; assay: NCI tumour cell line growth inhibition, 48 h
The source made the active and inactive calls. Cut-off read from the data, not from the text of the source: active = GI50 up to about 1.1 µM and inactive = higher.
Respond with a class label; see active, inactive

Look over these answered cases.
> print(dat)
                                   molecule    target  label.value
1  N=c1n(C(=O)N2CCCC2)c2cc(Cl)ccc2n1C1=NCCN1  CCRF-CEM     inactive
2  O=c1c2ccccc2c2ccccc2c(=O)n1Cc1ccc2c(c1)OCO2  CCRF-CEM     inactive
3  O=C(Nc1ccc(Cl)c(Cl)c1)C(=O)C(C(=O)c1ccccc1F)C1OC(=O)c2ccccc21 (stereo unspecified)  CCRF-CEM     inactive
4                       O=C1CSc2ccnc(=O)n21  CCRF-CEM     inactive

input: Hi, do you know how CS(=O)(=O)Nc1ccc2ccccc2c1 came out in this test?
output: inactive

input: CCCC[Si](CCCC)(CCCC)O[C@@H](/C=C/C(=O)OCC)[C@H](Cc1ccccc1)O[Si](CCCC)(CCCC)CCCC , same question.
output: inactive

input: Another molecule to check: S=C(NC/C(Br)=C/Br)Nc1cccc2ccccc12
output: inactive

input: Query C=C1C(=O)O[C@@H]2/C=C(\C)CC/C=C(/COC(C)=O)C[C@@H](OC(C)=O)[C@@H]12 next
output: active

input: And what about the molecule CCCOP(=S)(N1CC1)N1CC1 ?
output: inactive

input: Again, but for CCOC(=O)c1c(NCc2ccccc2)n(-c2ccccc2)c(=S)n(-c2ccccc2)c1=O
output: inactive

input: // next record COC(OC)c1cccc2c1C(=O)CCC1(CC2)OCCCCO1
output: inactive

input: Repeat with CCOC(=O)CC(C)C1(C(=O)OCC)CCCCC1=O (stereo unspecified)
output: inactive

input: Then what about the molecule Cc1c(/C=C2\CC/C(=C\c3[nH]c(C(=O)OC(C)(C)C)c(C)c3C)C2=O)[nH]c(C(=O)OC(C)(C)C)c1C ?
output: inactive

input: Okay, and O=C1C=C(OCCCl)C(=O)c2c(O)ccc(O)c21 ?
output: active
